Target: Serotonin 3 (5-HT3) receptor (Rattus norvegicus, UniProt P35563+Q9JJ16)
Sequence (P35563 whole entry): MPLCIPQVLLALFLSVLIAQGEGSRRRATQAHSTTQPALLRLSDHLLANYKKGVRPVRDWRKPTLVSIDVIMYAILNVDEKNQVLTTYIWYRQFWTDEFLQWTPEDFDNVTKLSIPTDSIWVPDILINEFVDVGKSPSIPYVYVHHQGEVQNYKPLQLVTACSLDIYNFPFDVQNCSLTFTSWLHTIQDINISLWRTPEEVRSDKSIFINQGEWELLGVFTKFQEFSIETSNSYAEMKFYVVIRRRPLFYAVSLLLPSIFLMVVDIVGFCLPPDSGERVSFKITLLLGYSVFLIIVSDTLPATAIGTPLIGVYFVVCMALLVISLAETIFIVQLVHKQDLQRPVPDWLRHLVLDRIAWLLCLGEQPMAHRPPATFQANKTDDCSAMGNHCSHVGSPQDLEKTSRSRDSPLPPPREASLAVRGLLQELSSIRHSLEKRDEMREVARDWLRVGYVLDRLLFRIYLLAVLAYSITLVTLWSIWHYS
Sequence (Q9JJ16 whole entry): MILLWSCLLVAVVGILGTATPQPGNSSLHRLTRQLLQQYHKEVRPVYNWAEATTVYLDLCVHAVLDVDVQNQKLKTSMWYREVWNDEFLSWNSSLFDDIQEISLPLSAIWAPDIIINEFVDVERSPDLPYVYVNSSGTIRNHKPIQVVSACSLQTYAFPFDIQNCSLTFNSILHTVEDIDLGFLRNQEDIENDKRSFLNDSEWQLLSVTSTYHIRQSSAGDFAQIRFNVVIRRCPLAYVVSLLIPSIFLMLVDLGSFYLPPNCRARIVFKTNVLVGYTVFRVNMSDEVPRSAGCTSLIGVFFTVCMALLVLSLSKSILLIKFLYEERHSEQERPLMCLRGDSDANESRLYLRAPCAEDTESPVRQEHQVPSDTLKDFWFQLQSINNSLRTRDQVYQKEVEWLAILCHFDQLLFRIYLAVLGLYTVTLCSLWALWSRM
Assay: Inhibition of [3H]granisetron binding to 5-hydroxytryptamine 3 receptor of rat cortical membrane
outcome-measure: Ki (nM)
Could you give me the number in nM? Just the number is fine.

-- ask Any idea what Ki was measured for `CN1CCN(c2nc3ccccc3c3c2ccc2ccccc23)CC1` ?
-- reply 46

-- ask How about `CN1CCN(c2nc3ccccc3c3c2CCc2sccc2-3)CC1` ?
-- reply 5.7

-- ask Could you do the same for `CN1CCN(c2nc3ccccc3c3c2CSc2ccccc2-3)CC1` , please?
-- reply 19

-- ask Could you do the same for CN1CCN(c2nc3ccccc3c3c2CCC2CCCCC32)CC1 (stereo not given) , please?
-- reply 29

====

Target: 5-hydroxytryptamine receptor 2A (Rattus norvegicus, UniProt P14842)
Sequence (P14842 whole entry): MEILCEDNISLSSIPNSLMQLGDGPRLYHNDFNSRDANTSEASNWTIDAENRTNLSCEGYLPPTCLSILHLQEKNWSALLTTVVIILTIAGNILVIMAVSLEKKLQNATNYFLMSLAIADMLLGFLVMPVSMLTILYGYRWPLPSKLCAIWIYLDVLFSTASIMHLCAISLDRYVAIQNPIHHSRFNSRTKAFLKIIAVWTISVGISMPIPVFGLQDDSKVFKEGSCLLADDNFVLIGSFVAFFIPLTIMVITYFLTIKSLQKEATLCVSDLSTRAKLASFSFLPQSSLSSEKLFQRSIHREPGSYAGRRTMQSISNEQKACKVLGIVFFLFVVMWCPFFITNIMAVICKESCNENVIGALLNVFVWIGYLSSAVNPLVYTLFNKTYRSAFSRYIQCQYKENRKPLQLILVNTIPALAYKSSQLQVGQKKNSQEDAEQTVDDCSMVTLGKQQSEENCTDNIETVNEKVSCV
Assay: Binding affinity against 5-hydroxytryptamine 2A receptor of rat pre-frontal cortex
Format: tissue-based
outcome-measure: pKi
Note: pKi values are expressed as the negative base-10 logarithm of concentration in M.

-- ask Which pKi value is on record for `CN1CCN(c2cc3c4c(cccc4n2)-c2ccccc2-3)CC1` ?
-- reply 4.89

====

Target: Serotonin 3 (5-HT3) receptor (Rattus norvegicus, UniProt P35563+Q9JJ16)
Experiment: Inhibition of [3H]granisetron binding to 5-hydroxytryptamine 3 receptor (5-HT 3 receptor) of rat cortex and hippocampus tissue
Assay type: tissue-based
Param label: returns label 1 when Ki < 0.08 µM, returns label 0 otherwise, including exact equality.

-- ask For this compound, is Ki lower than 0.08 µM? `CN1CCN(c2nc3ccccc3c3c2CCc2ccccc2-3)CC1`
-- reply label 1

-- ask Quick one: `CN1CCN(c2nccc3c2ccc2ccccc23)CC1`
-- reply label 1

-- ask Do the same for `CN1CCN(c2nc3c(c4c2CCc2ccccc2-4)CCCC3)CC1` please
-- reply label 0

-- ask Consider next the compound `CN1CCN(c2cc3c4c(cccc4n2)-c2ccccc2-3)CC1` in the same way.
-- reply label 1

-- ask Then this compound: `CN1CCN(c2nc3ccccc3c3c2C(=O)c2ccccc2-3)CC1`
-- reply label 1

-- ask Next up: `c1ccc2c(c1)ccc1c(N3CCOCC3)nccc12`
-- reply label 0

-- ask Repeat for the following compound: `CN1CCN(c2nc3c(c4c2CSc2ccccc2-4)CCCC3)CC1`
-- reply label 0

-- ask Likewise for `CCCN(CCC)C(=O)c1c(N2CCN(C)CC2)nc2cccc3c2c1-c1ccccc1-3` ?
-- reply label 1

-- ask Repeat with `CN1CCN(c2nc3ccccc3c(-c3ccccc3)c2COC(=O)c2ccccc2)CC1`
-- reply label 1

-- ask Okay, and `CN1CCN(c2ccnc3c2ccc2ccccc23)CC1` ?
-- reply label 0

-- ask Can you handle `CCOC(=O)c1c(N2CCN(C)CC2)nc2cccc3c2c1-c1ccccc1-3` next?
-- reply label 1

-- ask Now consider `CN1CCN(c2nccc3c2CCc2ccccc2-3)CC1` .
-- reply label 1

====

Molecular target: 5-hydroxytryptamine receptor 1A (Rattus norvegicus, UniProt P19327)
Sequence (P19327 whole entry): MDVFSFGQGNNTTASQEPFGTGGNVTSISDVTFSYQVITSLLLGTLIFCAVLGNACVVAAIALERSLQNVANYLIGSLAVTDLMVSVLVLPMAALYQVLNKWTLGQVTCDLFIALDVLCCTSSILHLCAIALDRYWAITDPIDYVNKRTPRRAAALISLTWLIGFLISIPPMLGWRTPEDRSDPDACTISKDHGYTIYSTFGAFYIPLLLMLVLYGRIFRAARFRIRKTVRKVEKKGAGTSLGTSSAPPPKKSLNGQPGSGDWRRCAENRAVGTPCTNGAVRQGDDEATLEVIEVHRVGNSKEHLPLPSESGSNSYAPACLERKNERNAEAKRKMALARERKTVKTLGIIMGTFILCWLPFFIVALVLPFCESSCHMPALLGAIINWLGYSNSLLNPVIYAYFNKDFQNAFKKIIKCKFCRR
outcome-measure: pKi
pKi field: float, defined as -log10 of concentration (mol/L).

-- ask Quick one: pKi for `CN1CCN(c2nc3ccccc3c(-c3ccccc3)c2COC(=O)c2ccccc2)CC1` ?
-- reply 5.39
